tested on: CAKI-1 renal; experiment: NCI-60 one-dose screen, 48 h (100 = growth as untreated, 0 = no growth, -100 = all killed); conditions: 10 µM unless noted
Compounds without any hit were thinned out: in the full panel of roughly 83,000, 20% have a hit.
Label key: 1.0 means growth under 40%; 0.0 means growth of 40% or more.

>>> label_class("CCC(C)[C@@H]1NC(=O)[C@@H]2CCCN2C(=O)[C@H](Cc2ccccc2)NC(=O)[C@@H]2CCCN2C(=O)[C@H](Cc2ccccc2)NC(=O)[C@@H]2CCCN2C(=O)[C@H](Cc2ccccc2)NC1=O (some centres undefined)")
0.0
>>> label_class("CNCc1cccc2c1OCCOCCOCCN(C)S(=O)(=O)c1ccc(cc1)-c1cnc(N)c(n1)C(=O)N2")
0.0
>>> label_class("CCN(CC)CCCNc1cc(OC)cc2nc3cc(Cl)ccc3nc12")
1.0
>>> label_class("CC(C)n1cc2c(N)ncnc2n1")
0.0
>>> label_class("O=C(O)c1cccnc1Br")
0.0
>>> label_class("NC(=S)N/N=C/c1cc(-c2cccc(N)c2)ccn1")
1.0
>>> label_class("CCCCCCCCCCCCNC(=O)[C@H]1CSC(c2ccc(OC)c(F)c2)N1 (some centres undefined)")
1.0
>>> label_class("O=C(Nc1ccc(CN2CCOCC2)cc1)c1[nH]ncc1Nc1ncnc2sccc12")
1.0

* * *

test system: BT-549 breast; assay: NCI-60 one-dose screen, 48 h (100 = growth as untreated, 0 = no growth, -100 = all killed); conditions: 10 µM unless noted
This is part of a sample that, as a whole, favours compounds with a hit. Of some 83,000 tested, about 20% had one in any assay.
readout: growth (%)

>>> measurement("O=C1Nc2ccccc2C12CC(c1ccc(Cl)cc1)=NN2 (configuration not stated)")
98.5
>>> measurement("CCCCCCCCCC(=O)Oc1ccc(/C(=C(/C)c2ccccc2)c2ccc(OCCN3CCCC3)cc2)cc1")
24.5
>>> measurement("Nc1c(C(=O)Nc2ccccc2)sc2nc3c(cc12)CN(CCc1ccccc1)CC3")
104
>>> measurement("Fc1ccc(Cc2ccc(F)cc2)cc1")
128
>>> measurement("ClC1=C2NC=NC2n2c(nnc2-c2ccc(Cl)cc2)N1 (configuration not stated)")
101
>>> measurement("CCN(CC)c1ccc(CNc2cc(C)nc3ccc(OC)cc23)cc1")
79.6
>>> measurement("CC(=O)CC(C)(C)c1ccc(Cl)cc1")
101
>>> measurement("CCn1cc2c(cc1=O)-c1nc3ccccc3c3ccnc(c13)C2=O")
86.2
>>> measurement("CN1CCCCC1CCN1c2ccccc2Sc2ccc(Cl)cc21 (configuration not stated)")
73.8
>>> measurement("COCCCNc1nc(NC(=O)c2ccc(F)cc2C)cc(-c2cccnc2)n1")
103
>>> measurement("Clc1nc(Cl)c2c3c(sc2n1)CCCC3")
13.3
>>> measurement("Cc1cc(Nc2nc(N3CCNCC3)nc3ccccc23)n[nH]1")
88.6

* * *

system: MCF7 breast; assay: NCI-60 one-dose screen, 48 h (100 = growth as untreated, 0 = no growth, -100 = all killed); settings: 10 µM unless noted
This is part of a sample that, as a whole, favours compounds with a hit. Of some 83,000 tested, about 20% had one in any assay.
readout: growth (%)

>>> measurement("O=c1cc(-c2ccccc2)[nH]c2ccccc12")
15.6
>>> measurement("COCCOc1ccc(-c2nc3ccc(-c4nc5ccc(N6CCN(C)CC6)cc5[nH]4)cc3[nH]2)cc1")
17.7
>>> measurement("CCOC(=O)Cc1cnn(C)c1NC(=O)c1ccc(Cl)cc1NC(C)=O")
106
>>> measurement("CN[C@@]12CC3(C=CC(=O)C=C3)O[C@]1(Cc1ccc(OC)cc1)N(C)C(=O)N2")
16.4
>>> measurement("Cn1cc(-c2csc(-c3cn(C)c4ncccc34)n2)c2ccccc21")
13

* * *

tested on: NCI/ADR-RES ovarian; experiment: NCI-60 one-dose screen, 48 h (100 = growth as untreated, 0 = no growth, -100 = all killed); details: 10 µM unless noted
This is part of a sample that, as a whole, favours compounds with a hit. Of some 83,000 tested, about 20% had one in any assay.
# binarize growth: threshold 80% inclusive, high side True, low side False

>>> label_class("O=C1C=CC(Nc2ccccc2[N+](=O)[O-])C1Nc1ccccc1[N+](=O)[O-] (centres undefined)")
"False"
>>> label_class("CC1(C)CC(C(=O)OCCCCCCCCCCC[P+](c2ccccc2)(c2ccccc2)c2ccccc2)C(C)(C)N1O (centres undefined)")
"False"
>>> label_class("COc1ccc(C2c3ccc4ccccc4c3Oc3ncnc(N)c32)cc1 (centres undefined)")
"False"
>>> label_class("CN1C2CCC1/C(=C\\c1ccc(Cl)cc1)C1=C2[C@@H](c2ccc(Cl)cc2)C(C#N)=C(N)O1 (some centres undefined)")
"True"
>>> label_class("COc1cc(OC)c(/C=C/S(=O)(=O)Cc2cnc(OC)c(N)c2)c(OC)c1")
"False"
>>> label_class("O=c1c(/C=C/c2ccco2)nnc(SCCN2CCOCC2)n1/N=C/c1ccc([N+](=O)[O-])cc1")
"True"
>>> label_class("COc1ccc(-n2c(C)nc3c(c(C)nn3-c3ccccc3)c2=O)cc1")
"False"
>>> label_class("NC(=S)N/N=C/c1ccc(OCc2ccccc2)cc1")
"True"

* * *

test system: KM12 colon; experiment: NCI-60 one-dose screen, 48 h; conditions: 10 µM unless noted
This is part of a sample that, as a whole, favours compounds with a hit. Of some 83,000 tested, about 20% had one in any assay. Activity calls are given as the source filed them. Rule for the calls: active = growth percent below 10; inactive = the rest.
Classes used: active, inactive

>>> label_class("CSc1nc(NCCCNc2ccnc3cc(Cl)ccc23)cc(-c2ccccc2)n1")
"inactive"
>>> label_class("Nc1cc(O)cc2cccnc12")
"inactive"
>>> label_class("O=C(NC(Cc1ccccc1)C(=O)CCl)OCc1ccccc1 (stereo unspecified)")
"inactive"
>>> label_class("COc1ccc2nc(NC(=O)c3cccnc3Nc3cc(OC)c(OC)c(OC)c3)sc2c1")
"inactive"
>>> label_class("COc1cc(C2CC(=O)c3c(C)nn(-c4nc5ccccc5[nH]4)c3C2)cc(OC)c1OC (stereo unspecified)")
"inactive"
>>> label_class("CNc1cc2nc3cc(NC)c(C)cc3cc2cc1C")
"active"
>>> label_class("O=C(/C=C/c1ccc(B(O)O)cc1)/C=C/c1ccc(B(O)O)cc1")
"active"
>>> label_class("COc1ccc(-c2csc(NC(=O)CN3CCN(c4cc5c(cc4F)c(=O)c(C(=O)O)cn5C4CC4)CC3)n2)cc1")
"inactive"
>>> label_class("CSc1nc(NCCO)c(C#N)c(-c2cccc(N)c2)n1")
"inactive"
>>> label_class("COc1ccc(C2CC(=O)Nc3c2c(C)nn3-c2nc3ccccc3[nH]2)cc1 (stereo unspecified)")
"inactive"
>>> label_class("O=C1Nc2ccccc2C12CC(c1ccccc1)=NN2 (stereo unspecified)")
"inactive"

* * *

tested on: SF-295 CNS; assay: NCI-60 one-dose screen, 48 h (100 = growth as untreated, 0 = no growth, -100 = all killed); conditions: 10 µM unless noted
Compounds without any hit were thinned out: in the full panel of roughly 83,000, 20% have a hit.
readout: growth (%)

>>> measurement("COc1cc(C2CC(=O)c3c(C)nn(-c4nc5ccccc5[nH]4)c3C2)cc(OC)c1OC (stereo not drawn)")
64.7
>>> measurement("CN(C)c1ccc(/C=C\\C2=[N+](C)c3ccccc3C2(C)C)cc1")
-23.9
>>> measurement("CC1CN(Cc2ccco2)C(=S)N(c2ccccc2)C1=O (stereo not drawn)")
92.3
>>> measurement("Cc1cc(OCc2ccc(C(F)(F)F)cc2)c2c(c1)C(=O)C=C(NCCN1CCCC1)C2=O")
64.1
>>> measurement("O=C(CCCN1CCOCC1)Nc1ccc(Cn2nnc3c2C(=O)c2nnn(Cc4ccc(NC(=O)CCCN5CCOCC5)cc4)c2C3=O)cc1")
79.3
>>> measurement("CCOC(=O)/C=C/C(=O)[C@H](CC(C)C)NC(=O)[C@H](Cc1ccccc1)NC(=O)OCc1ccccc1")
99.7
>>> measurement("COc1ccccc1-c1ccc2c(N)c(C(=O)c3ccc4c(c3)OCO4)sc2n1")
63.9
>>> measurement("CC1=C(C)C(=O)OC([C@](C)(O)[C@]2(O)CC[C@@]3(O)[C@@H]4C[C@H]5O[C@]56CC=CC(=O)[C@]6(C)[C@H]4CC[C@]23COC(=O)c2ccc(C)o2)C1 (stereo partly drawn)")
-24.5

* * *

Recorded growth for the following compounds
System: T-47D breast
Experiment: NCI-60 one-dose screen, 48 h (100 = growth as untreated, 0 = no growth, -100 = all killed)
Details: 10 µM unless noted
Method: Growth inhibition of the T-47D human tumor cell line is measured as a screen for anti-cancer activity. Cells are grown in 96 well plates and exposed to the test compound for 48 hours. Compounds are tested at a single concentration, which is 10^-5 M for most compounds. The reported endpoint is percent growth (GI% or GIPRCNT), where numbers from 0 - 100% represent growth inhibition, and numbers from -100% - 0 represent cell death. For example, a value of 40 represents 60% growth inhibition. […]
Compounds without any hit were thinned out: in the full panel of roughly 83,000, 20% have a hit. Activity calls are given as the source filed them. How the source made its calls: active means growth percent below 10; inactive means the rest.
readout: growth

>>> measurement("CN(C)c1ccc(/C=C(\\C#N)c2nc3ccccc3s2)cc1")
"89.4% (inactive)"
>>> measurement("COc1ccc(-c2nn(-c3ccccc3)cc2/C=C2\\SC(=O)NC2=O)cc1")
"85.9% (inactive)"
>>> measurement("O=C1C(Cl)=C(Cl)C(=O)c2c1nc1n2CCCC1")
"48.3% (inactive)"
>>> measurement("O=C(NCc1cccc(C(F)(F)F)c1)[C@H](CCC(=O)N1CCN(C2CCCCC2)CC1)N1C(=O)[C@@H](N2C(=O)OC[C@@H]2c2ccccc2)[C@H]1/C(Cl)=C/c1ccccc1")
"61.3% (inactive)"
>>> measurement("C=C1CCC2C3(C)COC(c4ccc(OC)cc4Br)OC3CCC2(C)C1/C=C/C1=CCOC1=O (centres undefined)")
"41.3% (inactive)"
>>> measurement("C=C1CCC2C3(C)COC(c4ccc(SC)cc4)OC3CCC2(C)C1C/C=C1/C(=O)OCC1O (centres undefined)")
"23.6% (inactive)"
>>> measurement("CCCCCCCCCCCCCC1=NCCN1CCO")
"65.7% (inactive)"
>>> measurement("CSc1nc(NCCO)c(C#N)c(-c2cccc(N)c2)n1")
"87.8% (inactive)"
>>> measurement("C[C@H](CCC(=O)O)[C@H]1CC[C@H]2[C@@H]3CC[C@@H]4/C(=C\\c5ccco5)C(=O)/C(=C\\c5ccco5)C[C@]4(C)[C@H]3CC[C@]12C")
"55.6% (inactive)"

meta.source: PubChem BioAssay (NCI)
